meta.source: PubChem BioAssay (NCI)

- Test system: SNB-19 CNS
- Experiment summary: NCI tumour cell line growth inhibition, 48 h
Measured property: TGI (µM)
Value expressed in µM; do not type the unit.

>  <Compound>
COc1cc2c(cc1OC)C(Cl)C(c1ccc(F)cc1)=C2Cl (stereo unspecified)

>  <TGI / µM>
37.5

$$$$
>  <Compound>
C#Cc1cccc(Nc2nc3cc([N+](=O)[O-])ccc3nc2Nc2ccc(O)cc2)c1

>  <TGI / µM>
3.19

$$$$
>  <Compound>
CCOc1ccc(NC2=CC(=O)C(=O)c3ccccc32)cc1

>  <TGI / µM>
9.46

$$$$

Need TGI of COc1cc2c(cc1O)[C@H](C)C(c1ccc(OC)c(OC)c1)O2 (stereo partly specified) , thanks.
65.3

Need TGI of CCCCCCCCCCSC(=N)N (tested in a mixture with another compound) , thanks.
18.2

Need TGI of COc1cc(OCCN(C)C)c2[nH]c(C(=O)N3CC(CCl)c4ccc(N)cc43)cc2c1 (stereo unspecified) , thanks.
2.59

Need TGI of `Br[Se]c1ccccn1` , thanks.
24.8

Need TGI of `O=C1c2ccccc2C(=O)c2c(/C=C\N3CCCCC3)ccnc21` , thanks.
17.1

Need TGI of `C=C1C[C@H](O)[C@H](Br)C(C)(C)[C@@]12CCC(C)=C(Cl)C2` , thanks.
14.1

----------
- Test system: NCI-H226 lung
- Experiment summary: NCI tumour cell line growth inhibition, 48 h
Measured property: TGI

Solved entries:
>  <Structure smiles string>
C/C(CN1C(=O)c2ccccc2C1=O)=N\NS(=O)(=O)c1ccc(Cl)cc1

>  <System name>
NCI-H226 lung

>  <Test result>
> 100 µM

$$$$
>  <Structure smiles string>
C=C(C)C(=O)O[C@@H]1C[C@@]2(C)O[C@@H]2C[C@H](O)/C(C)=C/[C@H]2OC(=O)C(=C)[C@@H]21

>  <System name>
NCI-H226 lung

>  <Test result>
> 100 µM

$$$$
>  <Structure smiles string>
Cc1ccc(-[n+]2cc([O-])on2)cc1

>  <System name>
NCI-H226 lung

>  <Test result>
> 100 µM

$$$$

Need TGI of `O=C(O)CSc1n[nH]c(-c2ccccc2O)n1` , thanks.
> 100 µM

Need TGI of `COc1cc2c(/C=C3/C(=O)Nc4cccc(Cl)c43)c(Cl)[nH]c2cc1C` , thanks.
7.59 µM

----------
- Tested on: M14 melanoma
- Experiment summary: NCI tumour cell line growth inhibition, 48 h; in the data active means GI50 below about 0.43 µM; inactive means the rest
A correct response names exactly one class from True for active, False for inactive

Past entries and their recorded results:
>  <Molecule>
C=C1C(=O)O[C@H]2[C@H]1CC/C(CNC(=O)c1cc3ccccc3[nH]1)=C\CC[C@@]1(C)O[C@@H]21

>  <Category label>
False

$$$$
>  <Molecule>
CC[C@@H](c1ccc(O)c(O)c1)[C@@H](CC)c1ccc(O)c(O)c1

>  <Category label>
False

$$$$
>  <Molecule>
Nc1nc2[nH]cc(CCc3ccc(C(=O)N[C@@H](CCC(=O)O)C(=O)O)cc3)c2c(=O)[nH]1

>  <Category label>
True

$$$$
>  <Molecule>
C#Cc1cccc(Nc2nc3cc([N+](=O)[O-])ccc3nc2Nc2ccc(O)cc2)c1

>  <Category label>
False

$$$$

Okay, next one:
Could you check what this test reported for Cc1ccc(NC2=C3CCCCC3OC2=O)cc1 (stereo not given) ?
False
